Target: human PAH with the R408W mutation (Homo sapiens, UniProt P00439, R408W)
Construct: expressed in transfected cells
Sequence (P00439 whole entry R408W): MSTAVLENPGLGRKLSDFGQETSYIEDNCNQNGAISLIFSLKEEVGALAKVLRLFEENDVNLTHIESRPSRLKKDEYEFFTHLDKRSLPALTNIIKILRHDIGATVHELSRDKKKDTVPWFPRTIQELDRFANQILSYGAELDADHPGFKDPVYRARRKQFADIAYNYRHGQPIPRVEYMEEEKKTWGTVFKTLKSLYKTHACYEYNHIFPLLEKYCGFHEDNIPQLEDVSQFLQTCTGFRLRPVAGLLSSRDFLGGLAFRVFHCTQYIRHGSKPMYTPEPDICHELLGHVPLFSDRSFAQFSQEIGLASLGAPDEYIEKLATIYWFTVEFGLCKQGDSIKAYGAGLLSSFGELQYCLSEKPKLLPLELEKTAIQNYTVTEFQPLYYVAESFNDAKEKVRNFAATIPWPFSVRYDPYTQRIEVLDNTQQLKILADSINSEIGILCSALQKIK
Assay: Cell Based Phenylalanine Flux Assay
Details: A375 cells expressing human R408W PAH; 24 hrs compound incubation; 13C-Tyrosine by LC-MS; average where tested multiple times; read-out: AC50
property: AC50

A selection of reference data follows.
> print(dat)
                                    compound  property          result
 1  O=C(c1nnc(-c2ccccn2)o1)N1CCc2[nH]cnc2[C@@H]1c1cc2ccccc2cn1      AC50       > 5000 nM
 2  COc1ccc(-c2nnc(C(=O)N3CCc4[nH]cnc4[C@H]3c3cc4ccccc4cn3)o2)nc1      AC50        < 500 nM
 3  O=C(N1CCc2[nH]cnc2C1c1ccc2ccccc2n1)C(F)(F)C1(O)CCC1 (stereo in doubt) [Example 55]      AC50  500 to 1000 nM
 4  Cn1cc(-c2ncc(C(=O)N3CCc4[nH]cnc4[C@@H]3c3cc4ccccc4cn3)s2)cn1      AC50       > 5000 nM
 5  O=C(c1cnc(-c2ccc(F)cn2)s1)N1CCc2[nH]cnc2C1c1cc2ccccc2cn1 (stereo in doubt)      AC50        < 500 nM
 6  CC(C)(O)c1nc(C(=O)N2CCc3[nH]cnc3[C@H]2c2cc3ccccc3cn2)no1      AC50  500 to 1000 nM
 7  O=C(c1ocnc1C(F)(F)F)N1CCc2[nH]cnc2C1c1ccc2ccccc2n1 (stereo in doubt) [Example 37]      AC50        < 500 nM
 8  O=C(c1cnco1)N1CCc2[nH]cnc2[C@H]1c1cc2ccccc2cn1      AC50        < 500 nM
 9  Cn1cc(-c2ncc(C(=O)N3CCc4[nH]cnc4[C@H]3c3cc4ccccc4cn3)s2)cn1      AC50        < 500 nM
10  O=C(c1nnc(-c2ccncc2)o1)N1CCc2[nH]cnc2[C@H]1c1ncc2ccccc2n1      AC50        < 500 nM

Give me AC50 for each of these compounds, listed below.
1. Cc1nc(C(C)(C)O)oc1C(=O)N1CCc2[nH]cnc2[C@H]1c1ccc2ccccc2n1
2. O=C(c1nnc(NC2CC2)o1)N1CCc2[nH]cnc2[C@@H]1c1cc2ccccc2cn1
3. Cc1nc(C(C)(C)O)oc1C(=O)N1C[C@H](C)c2[nH]cnc2[C@H]1c1cc2ccccc2cn1
4. Cn1ccc(-c2ccc3c(C(=O)N4CCc5[nH]cnc5[C@H]4c4cc5ccccc5cn4)cnn3c2)n1
5. O=C(c1oc(-c2ccc(C(F)(F)F)cn2)nc1C(F)F)N1CCc2[nH]cnc2[C@H]1c1ncc2ccccc2n1

Outgoing:
["1000 to 5000 nM", "> 5000 nM", "< 500 nM", "< 500 nM", "< 500 nM"]
